Entry source: patent US12528768B2

test: Physical stability of the solid form (exposure to heat, moisture, nitrogen or ambient conditions, followed by XRPD); type: physicochemical; conditions: overall judgement
parameter: stability of the solid form (in words)

- molecule: "O=C(O)c1ccc2c(c1)CCCC(c1ccc(Cl)cc1Cl)=C2c1ccc(O[C@H]2CCN(CCCF)C2)cc1 [acetone solvate]"
  observed result: "physically unstable"
- molecule: "O=C(O)c1ccc2c(c1)CCCC(c1ccc(Cl)cc1Cl)=C2c1ccc(O[C@H]2CCN(CCCF)C2)cc1 [THF solvate]"
  observed result: "unstable"
- molecule: "O=C(O)c1ccc2c(c1)CCCC(c1ccc(Cl)cc1Cl)=C2c1ccc(O[C@H]2CCN(CCCF)C2)cc1 [ethanol solvate]"
  observed result: "unstable"
- molecule: "O=C(O)c1ccc2c(c1)CCCC(c1ccc(Cl)cc1Cl)=C2c1ccc(O[C@H]2CCN(CCCF)C2)cc1 [anhydrate crystalline Form 1]"
  observed result: "metastable"
- molecule: "O=C(O)c1ccc2c(c1)CCCC(c1ccc(Cl)cc1Cl)=C2c1ccc(O[C@H]2CCN(CCCF)C2)cc1 [butanol solvate]"
  observed result: "physically unstable"
- molecule: "O=C(O)c1ccc2c(c1)CCCC(c1ccc(Cl)cc1Cl)=C2c1ccc(O[C@H]2CCN(CCCF)C2)cc1 [DCM solvate]"
  observed result: "unstable"
- molecule: "O=C(O)c1ccc2c(c1)CCCC(c1ccc(Cl)cc1Cl)=C2c1ccc(O[C@H]2CCN(CCCF)C2)cc1 [1,4-dioxane solvate]"
  observed result: "physically unstable"
- molecule: "O=C(O)c1ccc2c(c1)CCCC(c1ccc(Cl)cc1Cl)=C2c1ccc(O[C@H]2CCN(CCCF)C2)cc1 [anhydrate crystalline Form 4]"
  observed result: "metastable"
- molecule: "O=C(O)c1ccc2c(c1)CCCC(c1ccc(Cl)cc1Cl)=C2c1ccc(O[C@H]2CCN(CCCF)C2)cc1 [anhydrate crystalline Form 3]"
  observed result: "metastable"

====

test: Water sorption isotherms using Dynamic Vapor Sorption (DVS); assay type: physicochemical; settings: DVS sorption step, target RH 50%, 25° C.

- molecule: "O=C(O)c1ccc2c(c1)CCCC(c1ccc(Cl)cc1Cl)=C2c1ccc(O[C@H]2CCN(CCCF)C2)cc1 [anhydrate crystalline Form 3]"
  unit text: "%"
  Change in Mass: 2.21
- molecule: "O=C(O)c1ccc2c(c1)CCCC(c1ccc(Cl)cc1Cl)=C2c1ccc(O[C@H]2CCN(CCCF)C2)cc1 [anhydrate crystalline Form 1]"
  unit text: "%"
  Change in Mass: 2.09
- molecule: "O=C(O)c1ccc2c(c1)CCCC(c1ccc(Cl)cc1Cl)=C2c1ccc(O[C@H]2CCN(CCCF)C2)cc1 [anhydrate crystalline Form 4]"
  unit text: "%"
  Change in Mass: 0.51
- molecule: "O=C(O)c1ccc2c(c1)CCCC(c1ccc(Cl)cc1Cl)=C2c1ccc(O[C@H]2CCN(CCCF)C2)cc1 [anhydrate crystalline Form 2]"
  unit text: "%"
  Change in Mass: 0.03

====

// reported Change in Mass per item
assay: Water sorption isotherms using Dynamic Vapor Sorption (DVS); assay type: physicochemical; details: DVS sorption step, target RH 70%, 25° C.

- compound: "O=C(O)c1ccc2c(c1)CCCC(c1ccc(Cl)cc1Cl)=C2c1ccc(O[C@H]2CCN(CCCF)C2)cc1 [anhydrate crystalline Form 2]"
  Change in Mass / %: 0.05
- compound: "O=C(O)c1ccc2c(c1)CCCC(c1ccc(Cl)cc1Cl)=C2c1ccc(O[C@H]2CCN(CCCF)C2)cc1 [anhydrate crystalline Form 3]"
  Change in Mass / %: 2.62
- compound: "O=C(O)c1ccc2c(c1)CCCC(c1ccc(Cl)cc1Cl)=C2c1ccc(O[C@H]2CCN(CCCF)C2)cc1 [anhydrate crystalline Form 1]"
  Change in Mass / %: 2.99
- compound: "O=C(O)c1ccc2c(c1)CCCC(c1ccc(Cl)cc1Cl)=C2c1ccc(O[C@H]2CCN(CCCF)C2)cc1 [anhydrate crystalline Form 4]"
  Change in Mass / %: 0.64
